Biological target: JAK1 (Homo sapiens (Human), UniProt P23458)
Sequence (P23458 875-1153): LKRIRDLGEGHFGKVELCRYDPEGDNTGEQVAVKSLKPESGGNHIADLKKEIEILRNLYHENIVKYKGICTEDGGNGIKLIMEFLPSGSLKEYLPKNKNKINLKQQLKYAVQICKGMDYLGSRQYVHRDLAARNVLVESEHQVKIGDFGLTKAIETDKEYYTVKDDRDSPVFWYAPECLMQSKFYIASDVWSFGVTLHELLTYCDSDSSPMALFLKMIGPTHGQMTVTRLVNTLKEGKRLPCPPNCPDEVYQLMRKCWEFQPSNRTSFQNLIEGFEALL
Test: Jak Biochemical HTRF Assay, JAK1
Details: HTRF biochemical assay, GST-tagged catalytic domain; top concentration tested […]; read-out: JAK1 IC50
readout-name: IC50 (nM)
Number only, in nM; omit the unit.

Hi! What's the reported IC50 for "CC(C)(C)OC(=O)N1CCC(CC#N)(n2cc(C(N)=O)c(Nc3ccc(C(=O)N4CCS(=O)(=O)CC4)cc3)n2)CC1" on JAK1 (Homo sapiens (Human), UniProt P23458)?
0.5

Hi! What's the reported IC50 for "N#CCC1(n2cc(C(N)=O)c(Nc3ccc(F)cc3)n2)CCN(c2ccc(F)c(F)c2)CC1" on JAK1 (Homo sapiens (Human), UniProt P23458)?
2

Hi! What's the reported IC50 for "N#CCC1(n2cc(C(N)=O)c(Nc3cccnc3)n2)CCN(C(=O)OCC(F)(F)F)CC1" on JAK1 (Homo sapiens (Human), UniProt P23458)?
0.2

Hi! What's the reported IC50 for "N#CCC1(n2cc(C(N)=O)c(Nc3ccc(F)cc3)n2)CCN(c2cccc(F)n2)CC1" on JAK1 (Homo sapiens (Human), UniProt P23458)?
0.3

Hi! What's the reported IC50 for "N#CCC1(n2cc(C(N)=O)c(Nc3ccc(F)cc3)n2)CCN(c2cccnc2F)CC1" on JAK1 (Homo sapiens (Human), UniProt P23458)?
0.06

Hi! What's the reported IC50 for "CN1CCN(CCOC(=O)N2CCC(CC#N)(n3cc(C(N)=O)c(Nc4ccccc4)n3)CC2)CC1" on JAK1 (Homo sapiens (Human), UniProt P23458)?
12

Hi! What's the reported IC50 for "CC(=O)c1cccc(NC(=O)N2CC(CC#N)(n3cc(C(N)=O)c(Nc4ccccc4)n3)C2)c1" on JAK1 (Homo sapiens (Human), UniProt P23458)?
4

Hi! What's the reported IC50 for N#CCC1(n2cc(C(N)=O)c(Nc3ccnc(F)c3)n2)CCC(Nc2ccccn2)CC1 (centres unmarked) [Example 40-4] on JAK1 (Homo sapiens (Human), UniProt P23458)?
102

---

Biological target: JAK1 (Homo sapiens (Human))
Assay: Jak Biochemical HTRF Assay, JAK1
Details: HTRF biochemical assay, GST-tagged catalytic domain; top concentration tested […]; read-out: JAK1 IC50
readout-name: IC50
Quote the value and follow it with the unit of measurement.

Which IC50 value is on record for N#CCC1(n2cc(C(N)=O)c(Nc3ccccc3)n2)CCN(C(=O)c2ccccc2)CC1 [Example 34-7] ?
6 nM

Which IC50 value is on record for N#CCC1(n2cc(C(N)=O)c(Nc3ccnc(F)c3)n2)CCN(CC2CCCCC2)CC1 [Example 22-3] ?
1 nM

Which IC50 value is on record for N#CCC1(n2cc(C(N)=O)c(Nc3ccccc3)n2)CN(C(=O)OCCN2CCOCC2)C1 [Example 30-55] ?
74 nM

Which IC50 value is on record for CC(C)(C)OC(=O)N1CCC(CC#N)(n2cc(C(N)=O)c(Nc3cccnc3)n2)CC1 [Example 9-34] ?
0.5 nM

Which IC50 value is on record for N#CCC1(n2cc(C(N)=O)c(Nc3ccc(S(=O)(=O)C(F)F)cc3)n2)CCC(N2CCC(O)CC2)CC1 (stereo not shown) [Example 40-43] ?
0.3 nM

Which IC50 value is on record for Cc1c[nH]c(CN2CCC(CC#N)(n3cc(C(N)=O)c(Nc4ccnc(F)c4)n3)CC2)n1 [Example 22-4] ?
74 nM

Which IC50 value is on record for N#CCC1(n2cc(C(N)=O)c(Nc3ccccc3)n2)CCN(C/C=C/c2ccccc2)CC1 [Example 21-17] ?
19 nM

Which IC50 value is on record for CC1(C)CC(CN2CCC(CC#N)(n3cc(C(N)=O)c(Nc4ccnc(F)c4)n3)CC2)CCO1 (stereo not shown) [Example 22-16] ?
5 nM

Which IC50 value is on record for N#CCC1(n2cc(C(N)=O)c(Nc3ccc(F)cc3)n2)CCSCC1 [Example 7] ?
8 nM

Which IC50 value is on record for N#CCC1(n2cc(C(N)=O)c(Nc3ccnc(F)c3)n2)CCN(Cc2cccc(=O)[nH]2)CC1 [Example 22-67] ?
1 nM

Which IC50 value is on record for N#CCC1(n2cc(C(N)=O)c(Nc3ccnc(F)c3)n2)CCN(Cc2ccc(O)nc2)CC1 [Example 22-68] ?
0.1 nM

Which IC50 value is on record for N#CCC1(n2cc(C(N)=O)c(Nc3ccc(F)cc3)n2)CCC(Nc2ccc(F)c(F)c2)CC1 (stereo not shown) [Example 40-35] ?
0.8 nM

Which IC50 value is on record for N#CCC1(n2cc(C(N)=O)c(Nc3ccc(S(=O)(=O)C(F)F)cc3)n2)CCC(N2CCC(F)(F)CC2)CC1 (stereo not shown) [Example 40-31] ?
0.1 nM

Which IC50 value is on record for CC(C)(C)OC(=O)N1CCC(CC#N)(n2cc(C(N)=O)c(Nc3ccccc3)n2)CC1 [Example 2-1] ?
1 nM

Which IC50 value is on record for N#CCC1(n2cc(C(N)=O)c(Nc3ccc(F)cc3)n2)CCC(Nc2ccccc2)CC1 (stereo not shown) [Example 40-103] ?
0.1 nM

Which IC50 value is on record for N#CCC1(n2cc(C(N)=O)c(Nc3ccc(F)cc3)n2)CCN(c2cccc(OCCO)n2)CC1 [Example 3-10] ?
3 nM

---

Molecular target: JAK1 (Homo sapiens (Human), UniProt P23458)
Assay: Jak Biochemical HTRF Assay, JAK1
Conditions: HTRF biochemical assay, GST-tagged catalytic domain; top concentration tested […]; read-out: JAK1 IC50
Rule: IC50 below 1 nM gives class 1. Equal to or above 1 nM gives class 0.

# strict comparison: is reported IC50 < 1 nM? input = N#CCC1(n2cc(C(N)=O)c(Nc3ccnc(F)c3)n2)CCC(N2CC(F)C2)CC1 (centres unmarked) [Example 40-82]
class 0

# strict comparison: is reported IC50 < 1 nM? input = "CC(C)Oc1ccc(CN2CCC(CC#N)(n3cc(C(N)=O)c(Nc4ccccc4)n3)CC2)cc1"
class 0

# strict comparison: is reported IC50 < 1 nM? input = "CC(C)(C)OC(=O)N1CCC(CC#N)(n2cc(C(N)=O)c(Nc3cnccn3)n2)CC1"
class 0

# strict comparison: is reported IC50 < 1 nM? input = "CS(=O)(=O)c1ccc(Nc2nn(C3(CC#N)CCN(C(=O)CC#N)CC3)cc2C(N)=O)cc1"
class 1

# strict comparison: is reported IC50 < 1 nM? input = "CC(C)c1ccccc1NC(=O)N1CC(CC#N)(n2cc(C(N)=O)c(Nc3ccccc3)n2)C1"
class 0

# strict comparison: is reported IC50 < 1 nM? input = "N#CCC1(n2cc(C(N)=O)c(Nc3ccnc(F)c3)n2)CCN(Cc2ccccc2Cl)CC1"
class 1

---

Molecular target: JAK1 (Homo sapiens (Human))
Test: Jak Biochemical HTRF Assay, JAK1
Conditions: HTRF biochemical assay, GST-tagged catalytic domain; top concentration tested […]; read-out: JAK1 IC50
Rule: IC50 below 10 nM gives t. Equal to or above 10 nM gives f.

# strict comparison: is reported IC50 < 10 nM? input = N#CCC1(n2cc(C(N)=O)c(Nc3ccnc(F)c3)n2)CCC(Nc2cccc(Cl)c2)CC1 (stereo not drawn) [Example 40-62]
f

# strict comparison: is reported IC50 < 10 nM? input = "COc1ccc(C(=O)N2CCC(CC#N)(n3cc(C(N)=O)c(Nc4ccccc4)n3)CC2)cc1"
t

# strict comparison: is reported IC50 < 10 nM? input = "C[C@@H](NC(=O)N1CC(CC#N)(n2cc(C(N)=O)c(Nc3ccccc3)n2)C1)c1ccccc1"
f

# strict comparison: is reported IC50 < 10 nM? input = "Cc1cc(N2CCC(CC#N)(n3cc(C(N)=O)c(Nc4ccc(F)cc4)n3)CC2)ccn1"
t

# strict comparison: is reported IC50 < 10 nM? input = COC1CN(C2CCC(CC#N)(n3cc(C(N)=O)c(Nc4ccnc(F)c4)n3)CC2)C1 (stereo not drawn) [Example 40-81]
t

# strict comparison: is reported IC50 < 10 nM? input = "N#CCC1(n2cc(C(N)=O)c(Nc3ccc(F)cc3)n2)CCN(C(=O)OC2CCC2)CC1"
t

# strict comparison: is reported IC50 < 10 nM? input = "CC(C)(O)c1cccc(N2CCC(CC#N)(n3cc(C(N)=O)c(Nc4ccc(F)cc4)n3)CC2)n1"
t

# strict comparison: is reported IC50 < 10 nM? input = "Cc1cc(C)cc(NC(=O)N2CC(CC#N)(n3cc(C(N)=O)c(Nc4ccccc4)n3)C2)c1"
f

# strict comparison: is reported IC50 < 10 nM? input = N#CCC1(n2cc(C(N)=O)c(Nc3ccc(F)cc3)n2)CCC(NCC(F)(F)F)CC1 (stereo not drawn) [Example 40-98]
t

# strict comparison: is reported IC50 < 10 nM? input = "CS(=O)(=O)c1ccc(Nc2nn(C3(CC#N)CN(C(=O)OC4CCCC4)C3)cc2C(N)=O)cc1"
t

# strict comparison: is reported IC50 < 10 nM? input = "N#CCC1(n2cc(C(N)=O)c(Nc3ccc(F)cc3)n2)CCN(C(=O)OC2CCOCC2)CC1"
t

# strict comparison: is reported IC50 < 10 nM? input = N#CCC1(n2cc(C(N)=O)c(Nc3ccnc(F)c3)n2)CCC(NCc2cccc(C#N)c2)CC1 (stereo not drawn)
f

# strict comparison: is reported IC50 < 10 nM? input = "N#CCC1(n2cc(C(N)=O)c(Nc3ccc(S(=O)(=O)C(F)(F)F)cc3)n2)CCN(C(=O)OCC(F)(F)F)CC1"
t

# strict comparison: is reported IC50 < 10 nM? input = "CC(C)(O)CC(=O)N1CCC(CC#N)(n2cc(C(N)=O)c(Nc3ccnc(F)c3)n2)CC1"
t

# strict comparison: is reported IC50 < 10 nM? input = "N#CCC1(n2cc(C(N)=O)c(Nc3ccnc(F)c3)n2)CCN(Cc2ccn[nH]2)CC1"
t

# strict comparison: is reported IC50 < 10 nM? input = N#CCC1(n2cc(C(N)=O)c(Nc3ccc(F)cc3)n2)CCC(N2CCC(O)CC2)CC1 (stereo not drawn) [Example 40-41]
f

# strict comparison: is reported IC50 < 10 nM? input = "N#CCC1(n2cc(C(N)=O)c(Nc3ccccc3)n2)CCN(S(=O)(=O)c2ccc(-c3ccccc3)cc2)CC1"
t

# strict comparison: is reported IC50 < 10 nM? input = N#CCC1(n2cc(C(N)=O)c(Nc3ccnc(F)c3)n2)CCN(C(=O)OC2CCOC2)CC1 (single isomer, unassigned) [Example 49-1]
t

# strict comparison: is reported IC50 < 10 nM? input = "COc1ccccc1COC(=O)N1CC(CC#N)(n2cc(C(N)=O)c(Nc3ccccc3)n2)C1"
f

# strict comparison: is reported IC50 < 10 nM? input = "N#CCC1(n2cc(C(N)=O)c(Nc3ccccc3)n2)CCN(C(=O)Cc2ccc(C(F)(F)F)cc2)CC1"
f

# strict comparison: is reported IC50 < 10 nM? input = "COc1ccc(N2CCC(CC#N)(n3cc(C(N)=O)c(Nc4ccc(F)cc4)n3)CC2)cc1OC"
t

# strict comparison: is reported IC50 < 10 nM? input = "CC(C)(C)OC(=O)N1CCC(CC#N)(n2cc(C(N)=O)c(Nc3cccc(-c4ccccc4)c3)n2)CC1"
f

# strict comparison: is reported IC50 < 10 nM? input = "N#CCC1(n2cc(C(N)=O)c(Nc3ccc(F)cc3)n2)CCN(c2cccnc2)CC1"
t

# strict comparison: is reported IC50 < 10 nM? input = CC(OC(=O)N1CCC(CC#N)(n2cc(C(N)=O)c(Nc3ccc(F)cc3)n2)CC1)C1CC1 (stereo not drawn)
t

# strict comparison: is reported IC50 < 10 nM? input = "CC(C)(C)OC(=O)N1CCC(CC#N)(n2cc(C(N)=O)c(Nc3ccc(C(=O)C(F)(F)F)cc3)n2)CC1"
t

# strict comparison: is reported IC50 < 10 nM? input = "Cc1ccc(NC(=O)N2CC(CC#N)(n3cc(C(N)=O)c(Nc4ccccc4)n3)C2)cc1Cl"
f

# strict comparison: is reported IC50 < 10 nM? input = "C/C=C/C(=O)N1CCC(CC#N)(n2cc(C(N)=O)c(Nc3ccccc3)n2)CC1"
t

# strict comparison: is reported IC50 < 10 nM? input = "N#CCC1(n2cc(C(N)=O)c(Nc3cccc(-c4cc[nH]n4)c3)n2)CCN(C(=O)OCC(F)(F)F)CC1"
t
